Assay: M. tuberculosis H37Rv growth inhibitors, H37Rv strain (AID 1626);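 further: bacteria incubated seven days before Alamar blue readout; 0% = bacteria only wells and 100% = bacteria with antibiotic wells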
Conditions: hits give high values, concentration not given here
The whole screen tested about 220,000 compounds, of which about 2,000 (0.91%) were called active. Roughly 2% stayed inconclusive and do not appear here. These entries were drawn from the full list. Entries with a potency or affinity are not part of this list.
Below, each entry is listed alongside its reported inhibition.

>  <compound>
NC(=O)c1ccc(C(F)(F)F)n(Cc2cccc(Cl)c2)c1=O

>  <inhibition [%]>
17.3

$$$$
>  <compound>
O=C(CSc1nc2ccccc2[nH]1)Nc1nc(-c2cccc(Br)c2)cs1

>  <inhibition [%]>
9.78

$$$$
>  <compound>
O=c1c2ccccc2nc(-c2ccc(Cl)cc2Cl)n1O

>  <inhibition [%]>
1.38

$$$$
>  <compound>
COC(=O)c1cc(Br)c(=O)n(Cc2ccc(C(=O)O)cc2)c1

>  <inhibition [%]>
-9.26

$$$$
>  <compound>
Cc1ccc(S(=O)(=O)N2CCOCC2)cc1NC(=O)CN1CCC(Cc2ccccc2)CC1

>  <inhibition [%]>
9.42

$$$$
>  <compound>
Cc1nc2ccc(NC(=O)COc3ccccc3)cc2s1

>  <inhibition [%]>
83.5

$$$$
>  <compound>
CC(=O)c1ccc(OCC(=O)Nc2ccc3nc(C)sc3c2)cc1

>  <inhibition [%]>
56.8

$$$$
>  <compound>
CC(=O)NC(CCS(C)(=O)=O)C(=O)Nc1cc(Cl)ccc1Cl (centres undefined)

>  <inhibition [%]>
4.83

$$$$
>  <compound>
C/C(=C\C(=O)c1ccccc1)Nc1ccc(O)cc1

>  <inhibition [%]>
-1.7

$$$$
>  <compound>
O=c1[nH]c(NCCO)nc2c1C1(CCCC1)Cc1ccccc1-2

>  <inhibition [%]>
-4.7

$$$$
>  <compound>
COc1cc(CC(=O)Nc2ccc3nc(C)sc3c2)cc(OC)c1OC

>  <inhibition [%]>
-7.08

$$$$
>  <compound>
CCc1cc2ccc(OC)cc2nc1SCC(=O)NNC(C)=O

>  <inhibition [%]>
2.9

$$$$
>  <compound>
CCc1nnc(NC(=O)c2cc(-c3ccccc3)nn2-c2ccccc2)s1

>  <inhibition [%]>
19.3

$$$$
>  <compound>
COc1ccc(N2CCN(C(=O)CCc3c[nH]c4ccccc34)CC2)cc1

>  <inhibition [%]>
-4.15

$$$$
>  <compound>
O=C(Nc1nc2ccccc2s1)c1cc(-c2ccccc2)nn1-c1ccccc1

>  <inhibition [%]>
-3.23

$$$$
>  <compound>
CCOC(=O)C1=C(CC)Nc2ccccc2N=C1NC(=O)Nc1ccccc1OC

>  <inhibition [%]>
5.38

$$$$
>  <compound>
CCCCn1c(SCC(=O)Nc2nccs2)nc2ccccc2c1=O

>  <inhibition [%]>
-6.31

$$$$
>  <compound>
O=c1[nH]c(NCCO)nc2c1C1(CCCCC1)Cc1ccccc1-2

>  <inhibition [%]>
-9.4

$$$$
>  <compound>
CC1CCCC/C1=N\NC(=S)Nc1cccnc1 (centres undefined)

>  <inhibition [%]>
-2.62

$$$$
>  <compound>
COc1ccc(OCC(=O)Nc2nc3ccc(NC(C)=O)cc3s2)cc1

>  <inhibition [%]>
-3.22

$$$$
>  <compound>
COc1ccc(Nc2c3c(nc4ccccc24)CCCC3)cc1OC

>  <inhibition [%]>
8.23

$$$$
>  <compound>
CC(=O)Nc1ccccc1O

>  <inhibition [%]>
-3.72

$$$$
>  <compound>
CCc1cc(C(=O)c2ccc(C)cc2)c(NC(=O)CCl)s1

>  <inhibition [%]>
76.6

$$$$
>  <compound>
CCCC(=O)Nc1cc(-c2nn(C)c(=O)c3ccccc23)ccc1N1CCOCC1

>  <inhibition [%]>
-6.76

$$$$
